- System: IGROV1 ovarian
- assay.method.text: NCI tumour cell line growth inhibition, 48 h
observed.property: TGI

compound="CCOP(=O)(OCC)C(Nc1ccc(F)cc1)c1ccccc1 (configuration not stated)" system_tested="IGROV1 ovarian" observed_property=TGI result="> 100 µM"
compound="CC1(C)CC2C(C1=O)C1(C)CCCC2(C)C1=O (configuration not stated)" system_tested="IGROV1 ovarian" observed_property=TGI result="> 100 µM"
compound="O=C(O)CC(O)(C(=O)O)C(O)C(=O)O (configuration not stated)" system_tested="IGROV1 ovarian" observed_property=TGI result="> 1000 µM"
compound="CCCC1(N)CC(OC)OC(C)C1O (configuration not stated)" system_tested="IGROV1 ovarian" observed_property=TGI result="> 100 µM"
compound=NCCCC[C@H](N)C(=O)Nc1ccc(-c2nc3ccccc3s2)cc1Cl system_tested="IGROV1 ovarian" observed_property=TGI result="22.7 µM"
compound=C=CC1(c2ccc(OC)cc2)OCCCO1 system_tested="IGROV1 ovarian" observed_property=TGI result="> 100 µM"
compound=Cc1nc2c(=O)[nH]c3ccc(Cl)cc3c2o1 system_tested="IGROV1 ovarian" observed_property=TGI result="> 100 µM"

###

- System: M14 melanoma
- assay.method.text: NCI tumour cell line growth inhibition, 48 h
Listed compounds paired with reported TGI
observed.property: TGI

compound="C=CC(Br)(CBr)CCC(Br)C(C)C (stereo unspecified)" result="15.3 µM"
compound="OC1c2ccccc2C(O)C2OC12 (stereo unspecified)" result="> 100 µM"
compound="CC(=O)O[C@H]1CC[C@H]2[C@@H]3CCC(C(C)=O)[C@H](C(=O)O)[C@H]3CC[C@]12C (stereo partly specified)" result="> 100 µM"
compound="N#Cc1c2c(c(-c3cccs3)n(C3OC(CO)C(O)C(O)C3O)c1=S)CCc1ccccc1-2 (stereo unspecified)" result="> 100 µM"
compound="CC(C)(C)OC(=O)N1N=NC2C3OC(CC3=O)C21 (stereo unspecified)" result="> 100 µM"
compound=Cc1c(C(=O)O[C@H]2[C@@H]3[C@H](C)CC[C@H]3[C@]3(C)O[C@@]2(C2CCCCC2)C[C@H]3OC(=O)CO)ccc2ccccc12 result="16.7 µM"
compound="C#CCOC(=O)C(N)CCSC (stereo unspecified)" result="> 100 µM"
compound=O=S(=O)(O)ONC1=NCCN1 result="> 100 µM"
compound=CN1C(=O)N(C)C2(CCN(CCCCCCF)CC2)C1=O result="> 100 µM"
compound=C#CCN(Cc1nc2cc(C(F)(F)F)ccc2nc1-c1ccccc1)c1ccc(F)c(F)c1 result="> 100 µM"
compound="CCCC1(N)CC(OC)OC(C)C1O (stereo unspecified)" result="> 100 µM"
compound=COC(=O)Cc1nc2ccccc2o1 result="> 100 µM"
compound=Cc1sc2ncn(Cc3ccc(Cl)c(Cl)c3)c(=O)c2c1C result="64 µM"
compound="COc1c(N2CCN(Cn3c(O)c(N=NC(=O)c4ccncc4)c4cc(F)ccc43)C(C)C2)c(F)cc2c(=O)c(C(=O)O)cn(C3CC3)c12 (stereo unspecified)" result="> 50 µM"
compound=COc1ccc(/C=N/N=C(\[O-])c2ccncc2)cc1F.COc1ccc(/C=N\N=C(/[O-])c2ccncc2)cc1F.[Cu+2] result="> 100 µM"
compound=Cc1ncc([N+](=O)[O-])n1CCNC(=O)CCCCCn1ccnc1[N+](=O)[O-] result="> 100 µM"
compound=O=[N+]([O-])c1cc(F)c2cccnc2c1O result="40.9 µM"
compound=CN(C)CCn1nc(N)c2nc3cc(C(F)(F)F)ccc3nc21 result="> 100 µM"
compound=N#C/C(=C\c1ccccc1Br)C(=O)c1ccccc1 result="> 68.1 µM"
compound=C#Cc1cc2c(N)c(C(=O)c3cc(OC)c(OC)c(OC)c3)[nH]c2cc1OC result="> 100 µM"
compound=CC(=O)N1CCN(CCOc2ccc(C3CCN(C4=Nn5c(nnc5C(F)(F)F)CC4)CC3)cc2)CC1 result="> 100 µM"
compound=Cc1cc(O)c(C(C)C)cc1N=Cc1ccccc1O result="31.4 µM"
compound=NS(=O)(=O)c1ccc(NC(=O)Nc2ccccc2F)cc1 result="> 100 µM"
compound=O=C(O)C(=O)CBr result="> 100 µM"
compound=COc1ccc2[nH]c(O)c(/C=c3/cc4c(c(-c5ccc(F)cc5)n3)=Nc3ccccc3-4)c2c1 result="3.85 µM"
compound="CC1(C)C2CCC(N)(C2)C1O (stereo unspecified)" result="> 100 µM"
compound=COc1ccccc1N=C1SCCN1C(=S)Nc1ccc(S(=O)(=O)/N=C/N(C)C)cc1 result="> 100 µM"
compound=Nc1nc(N)c(-c2ccccc2)c(CCC(=O)Nc2ccc(Cl)cc2)n1 result="> 100 µM"
compound=CC(/C=N/NC1=NCCCN1)=N\NC1=NCCCN1 result="> 100 µM"
compound=Cn1ncc(-c2ccc3c(=O)[nH]nc(CN)c3c2)c1-c1c(F)cc2ccccc2c1C#N result="21.1 µM"
compound=COc1ccccc1NS(=O)(=O)c1ccc2ncn(NS(=O)(=O)c3ccc(Cl)cc3)c(=O)c2c1 result="> 100 µM"
compound="C[N+](C)(C)CC1CCCC/C1=N\\O (stereo unspecified)" result="> 100 µM"
compound=CN1CCN(CCOc2ccc(-c3cnc4c(-c5ccc(F)cc5)cnn4c3)cc2)CC1 result="3.7 µM"
compound="OC(c1ccccc1)(c1cccnc1)C(O)(c1ccccc1)c1cccnc1 (stereo unspecified)" result="> 100 µM"
compound="COc1ccc2c(c1)OCCC1=C2SCC2(C)CCN=C12 (stereo unspecified)" result="> 100 µM"
compound="CC(C)N(C(C)C)P(OCCC#N)OC1CC(n2cnc3c(=O)[nH]cnc32)OC1COC(=O)NCCCCCCNC(=O)OC(C)(C)c1ccc(-c2ccccc2)cc1 (stereo unspecified)" result="34.6 µM"
compound=CCCCCCNC(=O)Oc1ccc(/C(=C(\C)c2ccccc2)c2ccc(OCCN(CC)CC)cc2)cc1 result="2.38 µM"
compound="CN(C)CC1CCCC/C1=N/OC(=O)c1ccc(Cl)c(Cl)c1 (stereo unspecified)" result="> 100 µM"
compound=O=S(=O)(/N=C(\NO)Nc1ccc(Cl)cc1)c1ccc(-c2ccccn2)s1 result="> 100 µM"
compound=C=C1c2nc3ccccc3n2C=C(c2ccc(OC)cc2)N1c1ccc(OCCN2CCOCC2)cc1 result="> 55.4 µM"
compound=COC(=O)[C@H](CCSC)NC(=O)c1ccc(CNC(=O)/C(C)=C/c2ccccc2)cc1 result="83.7 µM"
